Measured values drawn from patent US4546176A for this set.

Recorded below: MIC, system Staph. aureus 209-P.
One number for each entry, in µg/mL.

CN(C)CCn1nnnc1SCC1=C(C(=O)O)N2C(=O)[C@@H](NC(=O)[C@H](NC(=O)c3coc4cc(O)c(O)cc4c3=O)c3ccc(OCC(=O)O)cc3)[C@H]2SC1 25
Cn1nnnc1SCC1=C(C(=O)O)N2C(=O)[C@@H](NC(=O)[C@H](NC(=O)c3coc4cc(O)c(O)cc4c3=O)c3ccc(OCC(=O)O)cc3)[C@H]2SC1 6.25
CO[C@@]1(NC(=O)[C@H](NC(=O)c2c(C)oc3cc(O)c(O)cc3c2=O)c2ccc(OCC(=O)O)cc2)C(=O)N2C(C(=O)O)=C(CSc3nnnn3CC(=O)O)CS[C@@H]21 100

Quick one: MIC for O=C(O)COc1ccc([C@@H](NC(=O)c2coc3cc(O)c(O)cc3c2=O)C(=O)N[C@@H]2C(=O)N3C(C(=O)O)=C(CSc4nnnn4CC(=O)O)CS[C@H]23)cc1 ?
50

---

Recorded below: MIC, system Ser. marcescens ES-75.
Give bare numbers, in µg/mL.

molecule	MIC / µg/mL
CO[C@@]1(NC(=O)[C@H](NC(=O)c2coc3cc(O)c(O)cc3c2=O)c2ccc(OCC(=O)O)cc2)C(=O)N2C(C(=O)O)=C(COC(C)=O)CS[C@@H]21 [Example 31]	0.4
Cn1nnnc1SCC1=C(C(=O)O)N2C(=O)[C@@H](NC(=O)[C@H](NC(=O)c3cc4ccc(O)c(O)c4oc3=O)c3ccc(OCC(=O)O)cc3)[C@H]2SC1 [Example 10]	0.1
Cn1nnnc1SCC1=C(C(=O)O)N2C(=O)[C@@H](NC(=O)[C@H](NC(=O)c3coc4cc(O)c(O)cc4c3=O)c3ccc(OCC(=O)O)cc3)[C@H]2SC1 [Example 4]	0.2
CO[C@@]1(NC(=O)[C@H](NC(=O)c2c(C)oc3cc(O)c(O)cc3c2=O)c2ccc(OCC(=O)O)cc2)C(=O)N2C(C(=O)O)=C(COC(C)=O)CS[C@@H]21 [Example 33]	0.8
CC(=O)Oc1cc2oc(C)c(C(=O)N[C@@H](C(=O)N[C@@H]3C(=O)N4C(C(=O)O)=C(CSc5nnnn5CC(=O)O)CS[C@H]34)c3ccc(OCC(=O)O)cc3)c(=O)c2cc1OC(C)=O [Example 22]	0.1

# per-item lookup of MIC; items listed below
1. CO[C@@]1(NC(=O)[C@H](NC(=O)c2c(C)oc3c(O)c(O)ccc3c2=O)c2ccc(OCC(=O)O)cc2)C(=O)N2C(C(=O)O)=C(CSc3nnnn3CC(=O)O)CS[C@@H]21 [Example 28]
2. Cc1oc2cc(O)c(O)cc2c(=O)c1C(=O)N[C@@H](C(=O)N[C@@H]1C(=O)N2C(C(=O)O)=C(CSc3nnnn3CC(=O)O)CS[C@H]12)c1ccc(OCC(=O)O)cc1 [Example 15]
3. CC(=O)OCC1=C(C(=O)O)N2C(=O)[C@@H](NC(=O)[C@H](NC(=O)c3c(C)oc4cc(O)c(O)cc4c3=O)c3ccc(OCC(=O)O)cc3)[C@H]2SC1 [Example 29]
4. O=C(O)COc1ccc([C@@H](NC(=O)c2coc3cc(O)c(O)cc3c2=O)C(=O)N[C@@H]2C(=O)N3C(C(=O)[O-])=C(C[n+]4ccccc4)CS[C@H]23)cc1 [Example 44]
5. CC(=O)OCC1=C(C(=O)O)N2C(=O)[C@@H](NC(=O)[C@H](NC(=O)c3coc4cc(O)c(O)cc4c3=O)c3ccc(OCC(=O)O)cc3)[C@H]2SC1 [Example 1]

1. 0.8
2. 0.1
3. 0.4
4. 0.8
5. 0.2
